Target: Cathepsin S (Homo sapiens, UniProt P25774)
Sequence (P25774 whole entry): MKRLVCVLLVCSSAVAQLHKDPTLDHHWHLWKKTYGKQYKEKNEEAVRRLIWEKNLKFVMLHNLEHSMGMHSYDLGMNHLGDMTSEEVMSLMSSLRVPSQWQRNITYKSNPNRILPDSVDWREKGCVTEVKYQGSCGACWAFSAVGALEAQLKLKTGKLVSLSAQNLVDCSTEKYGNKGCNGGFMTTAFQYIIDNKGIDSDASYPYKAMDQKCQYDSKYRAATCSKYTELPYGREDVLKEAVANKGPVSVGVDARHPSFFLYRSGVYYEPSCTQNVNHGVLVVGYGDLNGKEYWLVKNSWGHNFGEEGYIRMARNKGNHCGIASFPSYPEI
Experiment: Inhibition of human recombinant cathepsin S by fluorescence assay
pIC50: −log10 of the molar value.
Assign Criterion met whenever pIC50 does not fall below 7; assign Criterion not met whenever it does.

Here's what some known entries look like.
CCCc1cc(-c2ccc(Cl)c(C(F)(F)F)c2)nc(C#N)n1: Criterion met
CCCc1cc(-c2ccccc2)nc(C#N)n1: Criterion not met
N#Cc1nc(CCCN2CCCCC2)cc(C2CCCCCC2)n1: Criterion not met
CCCc1cc(-c2ccccc2C(F)(F)F)nc(C#N)n1: Criterion not met

Proceed to the following item.
INPUT: Determine whether measured pIC50 meets or exceeds 7 for CCCc1cc(-c2cccc(C(F)(F)F)c2Cl)nc(C#N)n1
OUTPUT: Criterion not met

* * *

Assay: Solubility of the compound
Format: physicochemical
value-kind: solubility (µg/mL)
Lab book: enter the figure in µg/mL, no units written.

INPUT: Dear colleague, I am looking for the recorded solubility of the following molecule: N#Cc1nc(CCCN2CCCCC2)cc(-c2cccc(C(F)(F)F)c2)n1
OUTPUT: 379

* * *

Biological target: Cathepsin S (Homo sapiens)
Assay: Inhibition of human recombinant cathepsin S by fluorescence assay
Response field label takes y when IC50 is strictly below 90 nM and n in all other cases.

Worked examples, 5 compounds total:
CCCc1cc(-c2ccc(C(F)(F)F)cc2)nc(C#N)n1: n
CCCc1cc(-c2ccc(C)c(C)c2)nc(C#N)n1: n
N#Cc1nc(CCCN2CCCCC2)cc(-c2cccc(C(F)(F)F)c2)n1: y
CCCc1cc(C2CCCCC2)nc(C#N)n1: n
CCCc1cc(-c2cccc(S(C)(=O)=O)c2)nc(C#N)n1: n

INPUT: Is 90 nM strictly greater than the compound's reported IC50? compound: CCC(CC)NCCCc1cc(-c2cccc(C(F)(F)F)c2)nc(C#N)n1
OUTPUT: y

INPUT: A record lists N#Cc1nc(NC2CCCCC2)nc(N2CCNCC2)n1 . Is its IC50 below 90 nM?
OUTPUT: n
